The values you see were collected from the supplement of paper PMC12855868.

B1: library; numbered along this chain (parent)
chain: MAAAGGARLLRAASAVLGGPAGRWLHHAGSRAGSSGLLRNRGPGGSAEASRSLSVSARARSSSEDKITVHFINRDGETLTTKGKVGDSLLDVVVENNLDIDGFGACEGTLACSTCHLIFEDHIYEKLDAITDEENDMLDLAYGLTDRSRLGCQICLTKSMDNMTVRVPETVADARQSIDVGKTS

variants of: B1; experiment: scaled log2 fold change in cell abundance, elesclomol vs control (0 = silent mean, 1 = nonsense mean) (scaled log2 ratio); higher = higher viability under elesclomol (loss of FDX1 cuproptosis function); details: with HEK293T FDX1 KO; elesclomol 40 nM; glucose 10 mM; 11 days;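 also: variant abundance is its share of total variant reads in each endpoint sample, from next-generation sequencing of the integrated ORF PCR-amplified out of genomic DNA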
value.kind: scaled log2 fold change
Reply: number alone, nothing else.

The examples below pair each entry with its known result.
mutation.string: A2Y
scaled log2 fold change: -0.115
--
mutation.string: A174T
scaled log2 fold change: -0.546

Item E120P has what recorded scaled log2 fold change?
0.193

Item H26N has what recorded scaled log2 fold change?
-0.198

Item R58M has what recorded scaled log2 fold change?
-0.781

Item G18Y has what recorded scaled log2 fold change?
0.324

Item V92I has what recorded scaled log2 fold change?
0.336
